B1: tRNA (parent)
chain: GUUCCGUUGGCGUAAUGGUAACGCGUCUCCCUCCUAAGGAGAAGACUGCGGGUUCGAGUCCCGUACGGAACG

Variants of: B1
run-description: yeast fitness, log relative to wild type (ln ratio); higher = fitter; tRNA-Arg(CCU), competitive growth, 37 C, 1 M NaCl
parameter-measured: yeast fitness (ln)
Answers are plain numbers.

Study these solved cases before continuing.
G1A U2G G6U C27U C46U C66A A70G :: -0.148
U2C G6U C66U A69G A70U :: -0.179
G1A A43C C66U C71U :: -0.289
G1A U2G G6A C66A A69G A70G C71U :: -0.257
U2G G6U C27U A43C C66A A70G :: -0.214

Look up yeast fitness (ln) for the entries below, preserving their order.
1. G6U C27U A43C A70G
2. U2C C27U A43C C46U C66A A69G A70G
3. G1A U2C A43C C46U C66U A70G
4. G1A C27U A43C A69G A70U
5. U2G G6A C27U A43C A69G A70G
6. G1A U2G G6U C27U A70G C71U
7. U2G C27U A43C C66A A70U C71U

A.
1. -0.282
2. -0.0542
3. -0.0459
4. -0.389
5. -0.168
6. -0.326
7. -0.319

Look up yeast fitness (ln) for the entries below, preserving their order.
1. U2C C66A C71U
2. U2C G6A A69G A70G C71U

A.
[-0.0382, -0.394]

Look up yeast fitness (ln) for the entries below, preserving their order.
1. G1A U2G C27U A43C C46U C66U A70G C71U
2. G1A U2G
3. G1A G6A C27U C46U C66U A70U

A.
1. -0.318
2. -0.0263
3. -0.198
